Recorded phospho-S6 immunofluorescence (z-score), one value per entry.
tested on: MDA-MB-468; assay: phospho-S6 immunofluorescence (DAPI-normalised), per-plate z-score; higher = higher phospho-S6 signal (less pathway suppression); details: co-treatment: GDC0941 450 nM; 24 h
Where a name gives a salt, the structure may show the parent alone.
Please give only the number in your answer, with no unit.

Below, each entry is followed by its recorded phospho-S6 immunofluorescence (z-score) result.
                                   molecule                             assay_metric  quantitative_readout
0  CC(=O)[C@H]1CC[C@H]2[C@@H]3CC=C4C[C@@H](O)CC[C@]4(C)[C@H]3CC[C@]12C [Pregnenolone] (compound 10 µM)  phospho-S6 immunofluorescence (z-score)                  1.58
1  Cn1c(=O)c2c(ncn2CC(=O)O)n(C)c1=O [Acefylline] (compound 10 µM)  phospho-S6 immunofluorescence (z-score)                   0.4
2  NCCc1c[nH]cn1 [Histamine] (compound 10 µM)  phospho-S6 immunofluorescence (z-score)                     0
3  CN(C)CCOC(c1ccccc1)c1ccccc1.Cn1c(=O)c2[nH]c(Cl)nc2n(C)c1=O [Dimenhydrinate] (compound 10 µM)  phospho-S6 immunofluorescence (z-score)                 -1.22

input: Bench note: what phospho-S6 immunofluorescence (z-score) did CCCCC1=NC2(CCCC2)C(=O)N1Cc1ccc(-c2ccccc2-c2nnn[nH]2)cc1 [Irbesartan] (compound 10 µM) show?
output: 0.03

input: Entry C/C(=N\NC(=O)C(NC(=O)c1ccccc1)c1n[nH]c(=O)c2ccccc12)c1cccc(Br)c1 (stereo unspecified) (compound 10 µM) : reported phospho-S6 immunofluorescence (z-score) = ?
output: 0.96

input: Please give the measured phospho-S6 immunofluorescence (z-score) for this molecule: O=C(/C=C/c1ccc(Cl)cc1)N1CCC2(CC1)CN(Cc1ccc(Cl)c(Cl)c1)C(=O)O2 (compound 10 µM)
output: -2.76

input: Given the molecule Clc1ccc(CCCOCCCN2CCCCC2)cc1 [Pitolisant (hydrochloride)] (compound 10 µM) , what is its reported phospho-S6 immunofluorescence (z-score)?
output: 0.75

input: Need phospho-S6 immunofluorescence (z-score) of Nc1nc(-c2nn(Cc3ccccc3F)c3ncccc23)ncc1C1CC1 (compound 10 µM) , thanks.
output: 1.07

input: What value of phospho-S6 immunofluorescence (z-score) has been reported for the following molecule? Cc1c(Cc2ccc3ccccc3n2)c2cc(F)ccc2n1CC(=O)O (compound 10 µM)
output: 0

input: // phospho-S6 immunofluorescence (z-score) lookup, key: Cc1cccc(C#Cc2ccccc2)n1 [MPEP (Hydrochloride)] (compound 10 µM)
output: -0.92

input: Need phospho-S6 immunofluorescence (z-score) of Cc1cc(OCCCS(C)(=O)=O)cc(C)c1-c1cccc(COc2ccc3c(c2)OC[C@H]3CC(=O)O)c1 (compound 10 µM) , thanks.
output: -1.06

input: What measured phospho-S6 immunofluorescence (z-score) goes with CC1(C)CN2C(CSC(=NC3CCCCC3)NC3CCCCC3)=CSC2=N1 [IT1t (dihydrochloride)] (compound 10 µM) ?
output: -2.08

input: Fill in: phospho-S6 immunofluorescence (z-score) of CN1CCN(C2=Nc3ccccc3Oc3ccc(Cl)cc32)CC1 [Loxapine] (compound 10 µM) is ___
output: 0.6

input: Sample CN(C)CC[C@@H](c1ccc(Cl)cc1)c1ccccn1 [Dexchlorpheniramine (maleate)] (compound 10 µM) — what was its phospho-S6 immunofluorescence (z-score)?
output: 0.61

input: Name the reported phospho-S6 immunofluorescence (z-score) value associated with the molecule COc1ccc2cc(OCC3(C(=O)O)CN(C(=O)c4ccc(F)cc4)C3)ccc2c1 (compound 10 µM)
output: -1.13

* * *

test system: MDA-MB-468; test: phospho-S6 immunofluorescence (DAPI-normalised), per-plate z-score; higher = higher phospho-S6 signal (less pathway suppression); conditions: co-treatment: vehicle; 24 h
Where a name gives a salt, the structure may show the parent alone.
Each record here notes measured phospho-S6 immunofluorescence (z-score).
Form rule: numeric answer, no unit written next to it.

In [3]: df
Out[3]:
                                   compound      system                             assay_metric  quantitative_readout
0  CCCN(CCC)CCc1cccc2c1CC(=O)N2 [Ropinirole (hydrochloride)] (compound 10 µM)  MDA-MB-468  phospho-S6 immunofluorescence (z-score)                  1.01

input: I'd like to know its phospho-S6 immunofluorescence (z-score). The compound in question is COC(=O)[C@H](c1ccccc1Cl)N1CCc2sccc2C1 [Clopidogrel (hydrogen sulfate)] (compound 10 µM)
output: -0.92

input: For the compound shown here, O=c1cc(CN2CCOCC2)occ1OCCCCCSc1ccnc2cc(C(F)(F)F)ccc12 (compound 10 µM) , give the reported phospho-S6 immunofluorescence (z-score).
output: -3.82

input: Query (compound): O=C(O)Cn1c2c(c3cc(F)ccc31)CN(C(=O)c1cccc3ccccc13)CC2 [Setipiprant] (compound 10 µM) ; field requested: phospho-S6 immunofluorescence (z-score)
output: -0.03

input: Param item = O=C(O)COc1cccc(CN(Cc2ccc(-n3cccn3)cc2)S(=O)(=O)c2cccnc2)c1 [Taprenepag] (compound 10 µM) ; retrieve measured phospho-S6 immunofluorescence (z-score).
output: -0.73

input: Entry under review: CNc1nc(NCc2ccc(NS(C)(=O)=O)cc2Cl)cc(-c2ccccn2)n1 (compound 10 µM) . Reported phospho-S6 immunofluorescence (z-score)?
output: -4.83

input: Which phospho-S6 immunofluorescence (z-score) is reported for this compound? Cc1cc(C)nc(NS(=O)(=O)c2ccc(NC(=S)NC(=O)COc3ccc(Br)cc3Cl)cc2)n1 (compound 10 µM)
output: 0.28

* * *

tested on: MDA-MB-468; experiment: phospho-S6 immunofluorescence (DAPI-normalised), per-plate z-score; higher = higher phospho-S6 signal (less pathway suppression); conditions: co-treatment: GDC0941 450 nM; 24 h
Response field class: enum, chosen by comparing phospho-S6 immunofluorescence (z-score) against group 1 = under -0.8, group 2 = from -0.8 up to 0.2, group 3 = 0.2 and over

MOLECULE	SYSTEM	LABEL_VALUE
CC(=O)N[C@H](Cc1ccc2ccccc2c1)C(=O)N[C@H](Cc1ccc(Cl)cc1)C(=O)N[C@H](Cc1cccnc1)C(=O)N[C@@H](CO)C(=O)N(C)[C@@H](Cc1ccc(O)cc1)C(=O)N[C@H](CC(N)=O)C(=O)N[C@@H](CC(C)C)C(=O)N[C@@H](CCCCNC(C)C)C(=O)N1CCC[C@H]1C(=O)N[C@H](C)C(N)=O [Abarelix] (compound 10 µM)	MDA-MB-468	group 3
CC(C)C[C@H](NC(=O)[C@H](CC(C)C)NC(=O)[C@H](Cc1ccccc1)NC(=O)[C@@H](N)CO)C(=O)N[C@@H](CCCN=C(N)N)C(=O)N[C@@H](CC(N)=O)C(=O)O (compound 10 µM)	MDA-MB-468	group 1
Cc1cccn2c(=O)c(C=C(C#N)c3nc4ccccc4s3)c(Oc3ccc(F)cc3)nc12 (compound 10 µM)	MDA-MB-468	group 3
COc1ccc2c(c1)c(CC(=O)N1CCOCC1)c(C)n2C(=O)c1ccc(Cl)cc1 (compound 10 µM)	MDA-MB-468	group 1
CC[C@H](C)[C@@H]1NC(=O)[C@H](Cc2ccc(O)cc2)NC(=O)[C@@H](N)CSSC[C@@H](C(=O)N2CCC[C@H]2C(=O)N[C@@H](CC(C)C)C(=O)NCC(N)=O)NC(=O)[C@H](CC(N)=O)NC(=O)[C@H](CCC(N)=O)NC1=O [Oxytocin (acetate)] (compound 10 µM)	MDA-MB-468	group 2
CCCCCCOc1nsnc1C1=CCCN(C)C1 [Xanomeline (oxalate)] (compound 10 µM)	MDA-MB-468	group 2
CC(C)(C)NCC(O)c1ccc(O)c(CO)c1 (stereo unspecified) [Salbutamol (hemisulfate)] (compound 10 µM)	MDA-MB-468	group 3
CC(C)Cc1ccc([C@@H](C)C(=O)NS(C)(=O)=O)cc1 [Reparixin] (compound 10 µM)	MDA-MB-468	group 2

input: Which category does the recorded phospho-S6 immunofluorescence (z-score) put CC(C)=CCC[C@](C)(O)[C@H]1CC[C@]2(C)[C@@H]1[C@H](O)C[C@@H]1[C@@]3(C)CC[C@H](O)C(C)(C)[C@@H]3[C@@H](O)C[C@]12C [(20S)-Protopanaxatriol] (compound 10 µM) in?
output: group 1

input: Sort into band: O=C(N[C@@H]1CC[C@@H](c2cccc(F)c2F)CN(CC(F)(F)F)C1=O)N1CCC(n2c(=O)[nH]c3ncccc32)CC1 (compound 10 µM)
output: group 2

input: Assign a bin to COc1ccccc1Oc1c(NS(=O)(=O)c2ccc(C)cn2)nc(-c2ccncc2)nc1OC [Avosentan] (compound 10 µM)
output: group 2
